Reported TGI values follow for various compounds
# Tested on: SNB-19 CNS
# Test details: NCI tumour cell line growth inhibition, 48 h

{"Compound": "COc1ccc(-c2cc(-c3ccco3)c(C#N)c(=S)n2C2OC(COC(C)=O)C(OC(C)=O)C(OC(C)=O)C2OC(C)=O)cc1 (stereo unspecified)", "TGI": "19.1 µM"}
{"Compound": "CCOC(=O)CCc1cc(=O)oc2cc(O)cc(O)c12", "TGI": "> 100 µM"}
{"Compound": "Cc1cc(N(CCOS(C)(=O)=O)CCOS(C)(=O)=O)ccc1C=Nc1ccc(-c2nc(Cc3ccccc3)sc2C)cc1", "TGI": "43.9 µM"}
{"Compound": "C[C@]12CC[C@H](O)CC1=CC[C@@H]1[C@@H]2CC[C@]2(C)C(c3cccnc3)=CC[C@@H]12", "TGI": "> 100 µM"}
{"Compound": "NCC1CCN(c2nc3ccccc3c3c2CCCC3)CC1", "TGI": "24.3 µM"}
{"Compound": "CC1=C(O)C(=O)[C@@H]2O[C@@H]2C1=O", "TGI": "115 µM"}
{"Compound": "O=C1c2c(c3c4ccccc4n(CCCCCCBr)c3c3[nH]c4ccccc4c23)C(=O)N1O", "TGI": "21.5 µM"}
{"Compound": "COc1cc2c(cc1OC)C1=Cc3cc(OC)c(OC)cc3C(C)N1C=C2 (stereo unspecified)", "TGI": "> 100 µM"}
{"Compound": "CSc1ccc(C2=NN(C(C)=O)C(c3cc(C)cs3)C2)cc1 (stereo unspecified)", "TGI": "> 100 µM"}
{"Compound": "Cc1cc2c(cc1C)[n+](=O)c(C(=O)CC(=O)C(=O)Nc1c(C(C)C)cccc1C(C)C)c(C)n2[O-]", "TGI": "> 100 µM"}
{"Compound": "O=C1/C(=C/c2ccccc2)N=C(c2ccccc2)N1n1c(-c2ccccc2)nc2ccccc2c1=O", "TGI": "> 100 µM"}
{"Compound": "CC(C)Sc1nc(C#N)cc2c1CCCC2", "TGI": "> 100 µM"}
{"Compound": "N#C/C(=C/c1ccsc1)C(=O)c1ccccc1", "TGI": "> 100 µM"}
{"Compound": "COc1cc(OC)cc(-c2ccc(-c3ccc(C(=N)N)o3)o2)c1", "TGI": "10.6 µM"}
{"Compound": "COc1cccc2c(N)c3cccc(C(=O)NCCN(C)C)c3nc12", "TGI": "1.44 µM"}
{"Compound": "N#CC1(Cc2ccc(N)cc2)c2ccccc2C=CN1C(=O)c1ccccc1 (stereo unspecified)", "TGI": "> 100 µM"}
{"Compound": "CCOC(=O)NC(=O)c1cn(C2OC(COC(=O)CCCCCCCCC(=O)OCC3OC(n4cc(C(=O)NC(=O)OCC)c(=O)[nH]c4=O)C(O)C3O)C(O)C2O)c(=O)[nH]c1=O (stereo unspecified)", "TGI": "> 100 µM"}
{"Compound": "Nc1nc2cc3nc(N)c(N)nc3cc2nc1N", "TGI": "> 100 µM"}
{"Compound": "CSc1cc(N=Nc2nc3ccccc3s2)c2ccccc2c1O", "TGI": "25.7 µM"}
{"Compound": "Cn1cc2ccccc2c1-c1nc(N)nc(F)n1", "TGI": "> 100 µM"}
{"Compound": "Cc1ccc([C@@H]2[C@@H](C(=O)c3ccccn3)[C@H](c3ccc(C)cc3)C[C@](O)(c3ccccn3)[C@H]2C(=O)c2ccccn2)cc1", "TGI": "> 64.3 µM"}

Values compiled from PubChem BioAssay (NCI).
